# assay_explanation: solubility of branaplam in selected excipients
# Type: physicochemical
# condition_description: aqueous excipient solution, 25 °C, pH 4, aqueous with cosolvent or surfactant or cyclodextrin, thermodynamic from solid, in Propylene glycol 5.0% (w/w), RT; read-out: Solubility (mg/mL) RT
measure: solubility at 24 h (mg/mL)
Just the number please, in mg/mL, no unit attached.

Incoming: Need solubility at 24 h, item CC1(C)CC(Oc2ccc(-c3ccc(-c4cn[nH]c4)cc3O)nn2)CC(C)(C)N1
Outgoing: 0.27

====

# assay_explanation: solubility of branaplam in selected excipients
# Assay type: physicochemical
# condition_description: aqueous excipient solution, 2 °C, pH 4, aqueous with cosolvent or surfactant or cyclodextrin, thermodynamic from solid, in PEG 300 25.0% (w/w), 2-8° C.; read-out: Solubility (mg/mL) 2-8° C.
measure: solubility at 24 h (mg/mL)
Express your answer in mg/mL, writing the number without its unit.

Incoming: Which solubility at 24 h reading was recorded for the compound CC1(C)CC(Oc2ccc(-c3ccc(-c4cn[nH]c4)cc3O)nn2)CC(C)(C)N1 ?
Outgoing: 0.87
